# EXPERIMENTAL_PARAMETERS: Ebola virus entry assay, green fluorescence channel
Measured potencies and affinities stand elsewhere.
READOUT: efficacy (%)

- C[C@@H]1C[C@H]2[C@@H]3CCC4=CC(=O)C=C[C@]4(C)[C@@]3(Cl)[C@@H](O)C[C@]2(C)[C@@]1(OC(=O)c1ccco1)C(=O)CCl: 39.8
- CC(=O)O[C@H]1C[C@@H]2CC[C@@H]3[C@H](CC[C@@]4(C)[C@H]3C[C@H]([N+]3(C)CCCCC3)[C@@H]4OC(C)=O)[C@@]2(C)C[C@@H]1N1CCCCC1: -18
- C[C@@H]1CCN(C(=O)[C@H](CCCN=C(N)N)NS(=O)(=O)c2cccc3c2NC[C@H](C)C3)[C@@H](C(=O)O)C1: -39.7

###

# ASSAY_OVERVIEW: Primary qHTS for inhibitors of nuclear receptor binding SET domain protein 2 (NSD2) in an RCH-ACV wild type WT cells (2C) (AID 1645877); also: nearly all actives have a fitted effect of over 70% in size
# EXPERIMENTAL_PARAMETERS: RCH-ACV (leukaemia line) NSD2 WT (2C) viability, CellTiter-Glo, 72 h; series mostly up to 44.9 µM
Records with an inconclusive call do not appear. Calls of active or inactive are those of the source. Calls follow the shape of the dose curve; as a rule, active = well fitted inhibition curve with a large enough effect; inconclusive = small, poorly fitted or top-dose-only effect; inactive = no such curve, though single readings can be large or run the other way.
Outcomes: active, inactive

• Cc1nnc2n1-c1sc(CCc3ccc(CC(C)C)cc3)cc1C(c1ccccc1Cl)=NC2C (configuration not stated) = active
• CN(C)CCc1c[nH]c2ccccc12 = inactive
• Clc1ccc(CSC(Cn2ccnc2)c2ccc(Cl)cc2Cl)cc1 (configuration not stated) = active
• O=C(O)c1nn(Cc2ccc(Cl)cc2Cl)c2ccccc12 = inactive
• CC1=C2[C@H]3OC(=O)[C@@H](C)[C@@H]3CC[C@@]2(C)C=CC1=O = inactive
• NCc1cccnc1 = inactive
• CCc1ccc(C2CCNCC2)cc1 = inactive
• C[C@H]1C(=O)O[C@@H]2CCN3CC=C(COC(=O)[C@](C)(O)[C@]1(C)O)[C@H]23 = active
• CN1C(=O)CN=C(c2ccccc2)c2cc(Cl)ccc21 = inactive
• COc1ccc(C(=O)N2CCCC2=O)cc1 = inactive
• COP(=S)(OC)Oc1ccc(S(N)(=O)=O)cc1 = inactive
• CC(C)NCC(O)c1ccc(N)c(C#N)c1 (configuration not stated) = inactive

###

# ASSAY_OVERVIEW: Primary qHTS for inhibitors of SARS-S pseudo-typed particle cell entry (AID 1479145); also: nearly all actives have a fitted effect of over 45% in size
# EXPERIMENTAL_PARAMETERS: SARS-S pseudotyped particle cell entry, luciferase reporter; series mostly up to 57.1 µM
Results filed as inconclusive are left out. Calls of active or inactive are those of the source. Calls follow the shape of the full dose curve.
Outcomes: active, inactive

- CCC(=O)O[C@]1(C(=O)SCF)[C@H](C)C[C@H]2[C@@H]3C[C@H](F)C4=CC(=O)C=C[C@]4(C)[C@@]3(F)[C@@H](O)C[C@@]21C: inactive
- COC(=O)Nc1nc2ccc(S(=O)c3ccccc3)cc2[nH]1 (stereo unspecified): inactive
- COc1cc(C(=O)OCCCN2CCCN(CCCOC(=O)c3cc(OC)c(OC)c(OC)c3)CC2)cc(OC)c1OC: active
- Cc1ccc2c(Cl)cc(Cl)c(O)c2n1: inactive
- Nc1c2c(nc3ccccc13)CCCC2: inactive
- CCCCC/C=C\C/C=C\CCCCCCCC(=O)NC(C)c1ccccc1 (stereo unspecified): inactive
- CC(C)C(=O)OCc1cccc(OC(=O)[C@@H]2N3C(=O)[C@@H](NC(=O)Cc4ccccc4)[C@H]3SC2(C)C)c1: inactive
- Cc1ccc(Nc2c(F)cccc2Cl)c(CC(=O)O)c1: inactive
- CCCCOc1ccc(OCCCN2CCOCC2)cc1: inactive
- OC[C@H]1O[C@@H](O[C@@H]2[C@@H](CO)O[C@](O)(CO)[C@H]2O)[C@H](O)[C@@H](O)[C@H]1O: inactive
- NCCNC(=O)c1ccc(Cl)cn1: inactive
- O=C(O)CCc1nc(-c2ccccc2)c(-c2ccccc2)o1: inactive
- CCC(=O)O[C@H]1CC[C@H]2[C@@H]3CCC4=CC(=O)CC[C@]4(C)[C@H]3CC[C@]12C: inactive
- O=C(CCCCC(=O)Nc1c(I)cc(I)c(C(=O)O)c1I)Nc1c(I)cc(I)c(C(=O)O)c1I: inactive
- CCN[C@H]1C[C@H](C)S(=O)(=O)c2sc(S(N)(=O)=O)cc21: inactive
- CC(=O)Oc1c(C)c(C)c2c(c1C)CC[C@@](C)(CCC[C@H](C)CCC[C@H](C)CCCC(C)C)O2: inactive
- O=c1[nH]cnc2c1ncn2[C@@H]1O[C@H](CO)[C@@H](O)[C@H]1O: inactive
- NC(N)=NC(=O)c1nc(Cl)c(N)nc1N: inactive
- CCCn1cnc2c1c(=O)n(CCCCC(C)=O)c(=O)n2C: inactive
- Nc1ccc(S(=O)(=O)Nc2cnc3ccccc3n2)cc1: inactive
- CCCN(CCC)C(=O)C(CCC(=O)O)NC(=O)c1ccccc1 (stereo unspecified): inactive
